Test System: TRPM8 (Rattus norvegicus (Rat))
Sequence (Q8R455 whole entry): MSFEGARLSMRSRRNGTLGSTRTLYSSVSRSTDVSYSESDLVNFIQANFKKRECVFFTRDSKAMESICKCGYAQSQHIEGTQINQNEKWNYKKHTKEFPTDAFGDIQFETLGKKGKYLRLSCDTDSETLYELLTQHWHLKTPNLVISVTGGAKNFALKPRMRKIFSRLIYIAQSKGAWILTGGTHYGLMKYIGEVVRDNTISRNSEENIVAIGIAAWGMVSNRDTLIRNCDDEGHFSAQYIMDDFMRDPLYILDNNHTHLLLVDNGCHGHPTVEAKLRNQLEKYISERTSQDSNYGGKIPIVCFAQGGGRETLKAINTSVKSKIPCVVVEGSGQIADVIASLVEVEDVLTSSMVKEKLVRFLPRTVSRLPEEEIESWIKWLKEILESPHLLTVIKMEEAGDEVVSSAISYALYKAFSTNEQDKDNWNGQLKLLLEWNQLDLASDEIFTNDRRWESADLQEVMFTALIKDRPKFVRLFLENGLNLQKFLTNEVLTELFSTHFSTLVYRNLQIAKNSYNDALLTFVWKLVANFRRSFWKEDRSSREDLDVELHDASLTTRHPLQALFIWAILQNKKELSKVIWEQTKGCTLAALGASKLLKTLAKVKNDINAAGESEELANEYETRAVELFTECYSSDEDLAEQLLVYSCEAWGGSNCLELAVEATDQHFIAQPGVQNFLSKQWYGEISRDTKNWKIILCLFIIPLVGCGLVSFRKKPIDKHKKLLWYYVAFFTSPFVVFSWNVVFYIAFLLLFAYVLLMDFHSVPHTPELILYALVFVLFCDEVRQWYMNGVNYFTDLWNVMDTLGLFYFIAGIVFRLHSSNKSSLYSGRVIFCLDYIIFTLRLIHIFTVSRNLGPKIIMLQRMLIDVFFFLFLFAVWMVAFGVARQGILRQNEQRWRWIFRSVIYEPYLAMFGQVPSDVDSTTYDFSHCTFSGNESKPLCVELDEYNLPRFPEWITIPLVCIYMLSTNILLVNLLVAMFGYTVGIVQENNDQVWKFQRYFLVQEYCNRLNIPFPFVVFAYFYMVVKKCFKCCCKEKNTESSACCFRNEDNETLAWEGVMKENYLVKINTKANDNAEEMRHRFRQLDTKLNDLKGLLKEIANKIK
Run Description: In vivo TRPM8 antagonistic assay in rats (menthol-induced wet-dog shakes)
Test Conditions: SD male rats; 3 mg/kg po 1 hour prior to menthol 50 mg/kg ip; WDS counted for 5 min
Readout Kind: TRPM8 antagonistic assay (% Inhibition @ 3 mg/kg) (%)

* CC(C)c1c(N(Cc2ccc(OC(F)(F)F)cc2)S(=O)(=O)c2ccc(C(=O)O)cc2)ncc2ccccc12 | 72.5
* O=C(O)c1ccc(S(=O)(=O)N(c2ncc3ccccc3c2C2CC2)C2CCc3cc(OC(F)(F)F)ccc32)cc1 (stereo not shown) | 83.5
* COc1c(N(Cc2ccc(OC(F)(F)F)cc2)S(=O)(=O)c2ccc(C(=O)O)cc2)ncc2ccccc12 | 98.8
* O=C(O)c1ccc(S(=O)(=O)N(Cc2ccc(OC(F)(F)F)cc2)c2ncc3ccccc3c2C(F)(F)F)cc1 | 92.7
